Record form. Attribute: ΔTm. Fill in for each entry.
Assay: Binding affinity to GC-rich FAM-GCGCAGATTTTCTGCGC-TAMRA DNA (unknown origin) assessed as change in melting temperature at 1 uM by FRET assay
Give bare numbers, in °C.

Structure As Smiles: COC(=O)c1cc(-c2ccc(NC(=O)c3cc(NC(=O)CCCOc4cc5c(cc4OC)C(=O)N4CCC[C@H]4C=N5)cn3C)cc2)cn1C
Recorded Metric: ΔTm
Test Result: 1.4
//
Structure As Smiles: COC(=O)c1cc(-c2ccc(NC(=O)c3cc(-c4ccc(NC(=O)CCCOc5cc6c(cc5OC)C(=O)N5CCC[C@H]5C=N6)cc4)cn3C)cc2)cn1C
Recorded Metric: ΔTm
Test Result: 3.6
//
Structure As Smiles: CCOC(=O)c1nc(NC(=O)c2cc(-c3ccc(NC(=O)CCCOc4cc5c(cc4OC)C(=O)N4CCC[C@H]4C=N5)cc3)cn2C)cn1C
Recorded Metric: ΔTm
Test Result: 2.8
//
Structure As Smiles: COC(=O)c1nc(NC(=O)c2cc(NC(=O)c3cc(-c4ccc(NC(=O)CCCOc5cc6c(cc5OC)C(=O)N5CCC[C@H]5C=N6)cc4)cn3C)cn2C)cn1C
Recorded Metric: ΔTm
Test Result: 5.8
//
Structure As Smiles: COC(=O)c1cc(NC(=O)c2cc(-c3ccc(NC(=O)CCCOc4cc5c(cc4OC)C(=O)N4CCC[C@H]4C=N5)cc3)cn2C)cn1C
Recorded Metric: ΔTm
Test Result: 3.1
//
Structure As Smiles: COc1cc2c(cc1OCCCC(=O)O)N=C[C@@H]1CCCN1C2=O
Recorded Metric: ΔTm
Test Result: 0.2
//
Structure As Smiles: COC(=O)c1cc(-c2ccc(NC(=O)c3nc(NC(=O)CCCOc4cc5c(cc4OC)C(=O)N4CCC[C@H]4C=N5)cn3C)cc2)cn1C
Recorded Metric: ΔTm
Test Result: 6.2
//
Structure As Smiles: COC(=O)c1cc(-c2ccc(NC(=O)CCCOc3cc4c(cc3OC)C(=O)N3CCC[C@H]3C=N4)cc2)cn1C
Recorded Metric: ΔTm
Test Result: 3.9
//
Structure As Smiles: COC(=O)c1cc(NC(=O)c2cc(NC(=O)c3cc(-c4ccc(NC(=O)CCCOc5cc6c(cc5OC)C(=O)N5CCC[C@H]5C=N6)cc4)cn3C)cn2C)cn1C
Recorded Metric: ΔTm
Test Result: 4.3

Lookup result for COC(=O)c1cc(NC(=O)c2cc(NC(=O)CCCOc3cc4c(cc3OC)C(=O)N3CCC[C@H]3C=N4)cn2C)cn1C ; measured ΔTm: 1.1

Origin of values: ChEMBL document CHEMBL2321778
